Tested on: Wolbachia pipientis
Test: Anti-Wolbachia Cell-Based Screen
Assay type: functional
Design: scale not given: in the data most compounds retested in dose-response had high values
Conditions: 5 µM
Among all 48,000 compounds or so, about 13,000 (27%) showed an effect of 50% or more. The list shows a part of the results.
VALUE_KIND: Percent Effect (%)
Use % as the unit, but write only the number.

Cc1c(CN2CCCC2c2cncc(CN3CCCC3)n2)cnn1C (configuration not stated) : 74.36
COc1ncccc1NC(=O)N1CCCC1c1cc(C)no1 (configuration not stated) : -4.048
O=C(C1CCOCC1)N1CCCC1c1cncc(CN2CCCC2)n1 (configuration not stated) : 74.28

Then there is this molecule:
Value wanted: Percent Effect (Wolbachia pipientis) of entry CN(CCO)C[C@@H]1CN(Cc2ccccc2C#N)C[C@@H]1CO 5.341

----------
Test system: Wolbachia pipientis
Assay: Anti-Wolbachia Cell-Based Screen
Format: functional
Set-up: scale not given: in the data most compounds retested in dose-response had high values
Details: 5 µM
Out of some 48,000 compounds screened, about 13,000 (27%) showed an effect of 50% or more. Some of the results follow.
VALUE_KIND: Percent Effect (%)
Use % as the unit, but write only the number.

CCC(CC)n1nc(C)cc1NC(=O)CC1CCOCC1 : 0.9076
Cn1nc(Cn2ccnc2)c2c1CN(c1nccs1)C2.O=C(O)C(F)(F)F.O=C(O)C(F)(F)F : 4.707
COCCN1CCC(CNC(=O)C2(c3cc(C)cc(C)c3)CC2)CC1 : 106.5
O=C1CC(NS(=O)(=O)N2CCOCC2)CN1Cc1ccccc1 (stereo unspecified) : 1.886
CN1CCC(N[C@@H]2CO[C@H](CNC(=O)c3cccs3)[C@H]2O)CC1 : -3.68

Value wanted: Percent Effect (Wolbachia pipientis) of entry COCCN1CCC(NC(=O)C2(c3cc(C)cc(C)c3)CC2)CC1 0.6832

Value wanted: Percent Effect (Wolbachia pipientis) of entry CCN1CCCC(CNC(=O)C2(c3cccc(Cl)c3)CC2)C1 (stereo unspecified) 3.483

Value wanted: Percent Effect (Wolbachia pipientis) of entry COCCN1CCC(CNC(=O)C2(c3cccc(Cl)c3)CC2)C1 (stereo unspecified) 119

Value wanted: Percent Effect (Wolbachia pipientis) of entry CCOCC(=O)N1C[C@@H](NC(C)=O)[C@H](c2ccc(OC)cc2)C1 0.296

Value wanted: Percent Effect (Wolbachia pipientis) of entry CN1CC(Oc2ccc(Cl)cc2)=NC(SCC(=O)Nc2ccccc2)=N1 25.95

Value wanted: Percent Effect (Wolbachia pipientis) of entry COCCN1CCC(CNC(=O)C2(c3cccc(C)c3)CC2)C1 (stereo unspecified) 112.6

----------
Reported Percent Effect values for a set of compounds
System: Wolbachia pipientis
Assay: Anti-Wolbachia Cell-Based Screen
Type: functional
Parameters: scale not given: in the data most compounds retested in dose-response had high values
Settings: 5 µM
The campaign covered roughly 48,000 compounds. About 13,000 (27%) showed an effect of 50% or more. The list shows a part of the results.
Use % as the unit, but write only the number.

These recorded examples may help you get a feel for the data.
Cc1cc(N(C)C)nc(N2CCn3c(C)nnc3C2)n1 : -0.4749
CC(C)(C)c1nnc(CN2CCN(C(=O)N3CCCCC3)CC2)o1 : 1.432
OCC1CCCCN1Cc1nc(Cc2cccc(F)c2)no1 (stereo not drawn) : -3.414
COc1ccc(CNCCc2cccc(C(N)=O)c2)cc1C : -2.965
CSCCCn1ccnc1-c1cccc(C#N)c1 : -12.84
COc1c(CNCc2ccc(CN3CCOCC3)cc2)c(C)nn1C : -11.29
O=C(c1cccc(F)c1)N1CCCN(Cc2cscn2)CC1 : 112.5
CC1c2ncc(CN3CCN(C)CC3)n2CCN1Cc1ccccn1.O=C(O)C(F)(F)F.O=C(O)C(F)(F)F.O=C(O)C(F)(F)F.O=C(O)C(F)(F)F (stereo not drawn) : 110.4

Look up Percent Effect for this compound: CC(CS(C)(=O)=O)N(C(=O)CCc1ccsc1)C1CC1 (stereo not drawn) -7.747

Look up Percent Effect for this compound: CCn1ncc2c1C(COC)CN(Cc1cnn(C)c1)C2 (stereo not drawn) 98.55

Look up Percent Effect for this compound: CC1c2ncc(Cn3cccn3)n2CCN1Cc1ccc(F)cc1.O=C(O)C(F)(F)F (stereo not drawn) 95.73

Look up Percent Effect for this compound: CCc1ncc2c(n1)CN(C(=O)CCCc1ccc(OC)cc1)C2 -1.775
